target.of.assay: Ba/F3-FL-EGFR (Homo sapiens)
Construct: FL read as full length
Sequence (P00533 whole entry, change not shown): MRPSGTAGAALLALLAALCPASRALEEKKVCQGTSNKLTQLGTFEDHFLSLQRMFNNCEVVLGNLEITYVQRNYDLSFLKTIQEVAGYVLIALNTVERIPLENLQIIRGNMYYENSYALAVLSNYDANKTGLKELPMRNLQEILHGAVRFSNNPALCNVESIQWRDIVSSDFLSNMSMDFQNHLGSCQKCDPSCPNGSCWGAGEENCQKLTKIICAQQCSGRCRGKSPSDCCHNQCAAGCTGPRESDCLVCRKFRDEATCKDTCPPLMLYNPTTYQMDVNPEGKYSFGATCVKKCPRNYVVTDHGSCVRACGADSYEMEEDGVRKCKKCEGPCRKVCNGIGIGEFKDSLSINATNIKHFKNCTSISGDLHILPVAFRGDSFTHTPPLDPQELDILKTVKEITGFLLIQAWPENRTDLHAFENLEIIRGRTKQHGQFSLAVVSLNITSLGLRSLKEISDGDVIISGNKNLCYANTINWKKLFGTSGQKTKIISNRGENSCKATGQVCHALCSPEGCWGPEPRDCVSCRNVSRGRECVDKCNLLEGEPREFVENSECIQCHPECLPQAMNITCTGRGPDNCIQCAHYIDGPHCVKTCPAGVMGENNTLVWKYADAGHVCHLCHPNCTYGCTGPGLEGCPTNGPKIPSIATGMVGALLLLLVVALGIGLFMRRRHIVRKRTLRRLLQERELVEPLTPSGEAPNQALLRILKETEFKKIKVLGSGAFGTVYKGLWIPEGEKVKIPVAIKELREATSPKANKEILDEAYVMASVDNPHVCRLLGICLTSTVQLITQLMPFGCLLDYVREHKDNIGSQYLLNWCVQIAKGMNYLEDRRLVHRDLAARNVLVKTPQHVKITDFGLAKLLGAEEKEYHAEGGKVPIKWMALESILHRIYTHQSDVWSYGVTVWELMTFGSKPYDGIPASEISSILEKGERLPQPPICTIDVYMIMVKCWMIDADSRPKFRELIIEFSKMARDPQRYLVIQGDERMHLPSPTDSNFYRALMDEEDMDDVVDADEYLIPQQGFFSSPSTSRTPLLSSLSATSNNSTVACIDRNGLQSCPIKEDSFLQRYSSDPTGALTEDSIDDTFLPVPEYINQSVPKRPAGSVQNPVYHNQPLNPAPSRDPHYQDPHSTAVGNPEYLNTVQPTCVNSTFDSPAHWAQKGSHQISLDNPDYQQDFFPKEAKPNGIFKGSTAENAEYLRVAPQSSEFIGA
protocol.notes: CellTiter-Glo proliferation, Ba/F3-FL-EGFR
Format: cell-based
details: 72 hours, read-out: Ba/F3-FL-EGFR IC50/nM

compound: CC(C)c1ccc(N2CC(CS(C)(=O)=O)C2)c2cnc(Nc3ccnc(-c4cnn(S(=O)(=O)CC5CC5)c4)n3)cc12 [Compound H14]
GI50: 721 nM

compound: CC(C)c1ccc(N2CC(NS(=O)(=O)c3ccoc3)C2)c2cnc(Nc3ccnc(N4CCC(O)C(F)C4)n3)cc12 (stereo not shown) [Compound P33]
GI50: 1500 nM

compound: COC1CCN(c2nccc(Nc3cc4c(C(C)C)ccc(N5CC(N(C)S(=O)(=O)C(F)(F)F)C5)c4cn3)n2)CC1F (stereo not shown) [Compound P50]
GI50: 6620 nM

compound: CC(C)c1ccc(N2CC(CS(C)(=O)=O)C2)c2cnc(Nc3ccnc(-c4cnn(S(=O)(=O)C5CC5)c4)n3)cc12 [Compound H1]
GI50: 101 nM

compound: COC1CCN(c2nccc(Nc3cc4c(C(C)C)ccc(N5CC(NS(C)(=O)=O)C5)c4cn3)n2)CC1F (stereo not shown) [Compound P29]
GI50: 1090 nM

compound: CC(C)c1ccc(N2CC(NS(C)(=O)=O)C2)c2cnc(Nc3ccnc(N4CCC(O)C(F)C4)n3)cc12 (stereo not shown) [Compound P21]
GI50: 1510 nM

compound: CC(C)c1ccc(N2CC(CS(C)(=O)=O)C2)c2cnc(Nc3ccnc(-c4cnn(S(=O)(=O)c5ccccn5)c4)n3)cc12 [Compound H16]
GI50: 1360 nM

compound: CC(C)c1ccc(N2CC(N(C)S(C)(=O)=O)C2)c2cnc(Nc3ccnc(N4CC[C@@H](O)[C@@H](F)C4)n3)cc12 [Compound P39a]
GI50: 670 nM

compound: CC(C)c1ccc(N2CC(CS(C)(=O)=O)C2)c2cnc(Nc3ccnc(-c4cn[nH]c4)n3)cc12 [Compound H3]
GI50: 854 nM

compound: CO[C@H]1CCN(c2nccc(Nc3cc4c(C(C)C)ccc(N5C[C@H](N(C)S(C)(=O)=O)[C@H]5C)c4cn3)n2)C[C@H]1F [Compound P40b]
GI50: 465 nM

compound: CC(C)c1ccc(N2CC(CS(C)(=O)=O)C2)c2cnc(Nc3ccnc(-c4cnn(S(=O)(=O)C5CCOCC5)c4)n3)cc12 [Compound H10]
GI50: 1080 nM

compound: CC(C)c1ccc(N2CC(CS(C)(=O)=O)C2)c2cnc(Nc3ccnc(-c4cnn(S(=O)(=O)C5(C)CC5)c4)n3)cc12 [Compound H18]
GI50: 658 nM

compound: CC(C)c1ccc(N2CC(N(C)S(C)(=O)=O)C2)c2cnc(Nc3ccnc(N4CC[C@H](O)[C@H](F)C4)n3)cc12 [Compound P39b]
GI50: 760 nM
